# TEST: Inhibition of Escherichia coli N5-CAIR synthetase by phosphate assay
pIC50: −log10 of the molar value.
Class Condition met: pIC50 at least 5. Class Condition not met: pIC50 below 5.

| GIVEN SMILES | CAT |
| --- | --- |
| Cc1nc(NC2(O)C(=O)c3ccccc3C2=O)cs1 | Condition met |
| COc1cscc1C(=O)NC1(O)C(=O)c2ccccc2C1=O | Condition not met |
| O=C1C(=O)N(CN2CCN(CN3C(=O)C(=O)c4ccccc43)C2)c2ccccc21 | Condition not met |
| O=C1C(=O)N(CN2CCOCC2)c2ccc(Br)cc21 | Condition not met |
| CCOC(=O)C1CCN(CN2C(=O)C(=O)c3ccccc32)CC1 | Condition not met |
| O=C1Nc2ccc(OC(F)(F)F)cc2C1=O | Condition not met |
| COc1cc(C(F)(F)F)c(C(=O)NC2(O)C(=O)c3ccccc3C2=O)cn1 | Condition not met |
| Cc1cc2nc3c(=O)[nH]c(=O)nc-3n(C[C@H](O)[C@H](O)[C@H](O)CO)c2cc1C | Condition not met |
| CN1CCN(CN2C(=O)C(=O)c3ccccc32)CC1 | Condition not met |
| Cc1nonc1NC1(O)C(=O)c2ccccc2C1=O | Condition met |

====

Listed here are compounds together with their documented Ki.
# TEST: Inhibition of Escherichia coli N5-CAIR synthetase using variable amount of ATP and fixed aminoimidazole ribonucleotide by ATPase assay

| GIVEN SMILES | Ki |
| --- | --- |
| Cc1cc2nc3c(=O)[nH]c(=O)nc-3n(C[C@H](O)[C@H](O)[C@H](O)CO)c2cc1C | 122 µM |
| CCOC(=O)c1noc(C)c1-c1csc(CS(=O)(=O)c2ccc(Cl)cc2)n1 | 43 µM |
| CCN(CC)C(=O)CN1C(=O)C(=O)c2ccccc21 | 40 µM |

====

# TEST: Inhibition of Escherichia coli N5-CAIR synthetase by phosphate assay
QUANTITY: IC50

| GIVEN SMILES | ASSAY VALUE |
| --- | --- |
| CCN(CC)C(=O)CN1C(=O)C(=O)c2ccccc21 | 10.5 µM |
| Cc1cc(NC2(O)C(=O)c3ccccc3C2=O)n(C)n1 | 7.8 µM |
| O=C(NC1(O)C(=O)c2ccccc2C1=O)c1cccc2c1-c1ccccc1C2=O | 8.7 µM |
| CCOC(=O)c1noc(C)c1-c1csc(CS(=O)(=O)c2ccc(Cl)cc2)n1 | 10 µM |
